# experimental details: Half life in C57 mouse at 10 mg/kg, po or 2 mg/kg, iv
# Format: ADME, organism-based
# assay setup: in vivo
result type: half-life (min)
# output: bare number, implied unit min

Q. Fill in: half-life of "CONC(=O)c1c(C)c(-c2ccc(-c3ccccc3F)cc2)nc2ccc(F)cc12" is ___
A. 141

---

The following compounds have recorded pIC50 on Dihydroorotate dehydrogenase (quinone), mitochondrial (Homo sapiens, UniProt Q02127).
Sequence (Q02127 whole entry): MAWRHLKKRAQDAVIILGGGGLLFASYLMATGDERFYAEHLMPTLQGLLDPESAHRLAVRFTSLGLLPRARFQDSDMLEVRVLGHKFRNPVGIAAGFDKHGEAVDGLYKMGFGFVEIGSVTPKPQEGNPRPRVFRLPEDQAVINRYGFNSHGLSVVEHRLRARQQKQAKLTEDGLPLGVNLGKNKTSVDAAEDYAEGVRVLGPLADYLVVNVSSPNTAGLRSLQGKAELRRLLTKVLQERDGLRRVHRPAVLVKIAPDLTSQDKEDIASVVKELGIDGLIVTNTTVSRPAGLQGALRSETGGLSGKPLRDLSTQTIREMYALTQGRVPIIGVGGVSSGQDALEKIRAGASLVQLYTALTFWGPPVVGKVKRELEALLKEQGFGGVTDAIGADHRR
Schema: pIC50 number; meaning minus log10 of the concentration expressed in molar units.

Recorded pIC50, per entry:
Q. Lookup: pIC50 / Dihydroorotate dehydrogenase (quinone), mitochondrial (Homo sapiens, UniProt Q02127) / "Cc1c(-c2ccc(-c3ccccc3F)cc2)nc2ccc(F)cc2c1C(=O)NC#N"
A. 6.94

Q. Find pIC50 (Dihydroorotate dehydrogenase (quinone), mitochondrial (Homo sapiens, UniProt Q02127)) for the entry "Cc1c(-c2ccc(-c3ccccc3F)cc2)nc2ccc(F)cc2c1-c1noc(=O)[nH]1"
A. 5.81

Q. // lookup pIC50 | system=Dihydroorotate dehydrogenase (quinone), mitochondrial (Homo sapiens, UniProt Q02127) | key= "Cc1c(-c2ccc(-c3ccccc3F)cc2)nc2ccc(F)cc2c1-c1nnn[nH]1"
A. 6.65

Further cases:
Q. Identify the measured pIC50 of "Cc1c(-c2ccc(-c3ccccc3F)cc2)nc2ccc(F)cc2c1C(F)F" for Dihydroorotate dehydrogenase (quinone), mitochondrial (Homo sapiens, UniProt Q02127).
A. 6.80

---

# experimental details: Metabolic stability in mouse liver microsomes assessed as half life
# Assay type: ADME, Microsome
result type: half-life (min)
Output spec: scalar in min, unitless text.

Q. I would be grateful if you could share the reported half-life for "Cc1c(-c2ccc(-c3ccccc3F)cc2)nc2ccc(F)cc2c1C(=O)NO" .
A. 36

Q. Entry under review: "Cc1c(-c2ccc(-c3ccccc3F)cc2)nc2ccc(F)cc2c1C(N)=O" . Reported half-life?
A. 65

Q. Any idea what half-life was measured for "CONC(=O)c1c(C)c(-c2ccc(-c3ccccc3F)cc2)nc2ccc(F)cc12" ?
A. 57

Here is the next item to consider.
Q. // query half-life value for entry "CCONC(=O)c1c(C)c(-c2ccc(-c3ccccc3F)cc2)nc2ccc(F)cc12"
A. 18

---

# experimental details: Oral bioavailability in C57 mouse at 10 mg/kg
# Format: ADME, organism-based
# assay setup: in vivo
Listing of entries alongside the reported bioavailability.
Number only, in %; omit the unit.

Q. # query: bioavailability of entry Cc1c(-c2ccc(-c3ccccc3F)cc2)nc2ccc(F)cc2c1C(=O)O [BREQUINAR]
A. 72

Okay, next one:
Q. // lookup bioavailability for "CONC(=O)c1c(C)c(-c2ccc(-c3ccccc3F)cc2)nc2ccc(F)cc12"
A. 108

---

Recorded half-life, one value per entry.
# experimental details: Metabolic stability in human liver microsomes assessed as half life
# Assay type: ADME, Microsome

Q. Look up half-life for this compound: "Cc1c(-c2ccc(-c3ccccc3F)cc2)nc2ccc(F)cc2c1C(=O)O"
A. > 3 h

Others:
Q. // returns reported half-life for input "CONC(=O)c1c(C)c(-c2ccc(-c3ccccc3F)cc2)nc2ccc(F)cc12"
A. > 3 h

Q. Dear colleague, I am looking for the recorded half-life of the following compound: "CCONC(=O)c1c(C)c(-c2ccc(-c3ccccc3F)cc2)nc2ccc(F)cc12"
A. > 3 h

Q. Look up half-life for this compound: "Cc1c(-c2ccc(-c3ccccc3F)cc2)nc2ccc(F)cc2c1C(=O)NO"
A. > 3 h

Q. Recorded half-life for "Cc1c(-c2ccc(-c3ccccc3F)cc2)nc2ccc(F)cc2c1C(N)=O" , please?
A. 2.25 h

Source of measurements: ChEMBL document CHEMBL4699538
